// data source = ChEMBL document CHEMBL2417428

Exercise: for every item that follows, state its recorded GI50.
- System: MDA-MB-231
- protocol: Cytotoxicity against human MDA-MB-231 cells after 48 hrs by sulforhodamine B assay
- Format: functional
- condition-label: MDA-MB-231, 48 h
Numbers only, in nM.

COC1=C(Br)C[C@@]2(OC=C1Br)ON=C(C(=O)NCCCOc1c(Br)cc(C(O)CN)cc1Br)[C@H]2O (relative stereo) :: 530

Would you be so kind as to report GI50 for each listed record?
1. COC1=C(Br)C[C@@]2(OC=C1Br)ON=C(C(=O)NCCCOc1c(Br)cc(CCNC=C3C(=O)C=CC3=O)cc1Br)[C@H]2O
2. COc1cccc2c1C(=O)c1c(O)c3c(c(O)c1C2=O)C[C@@](O)(C(=O)CO)C[C@@H]3O[C@H]1C[C@H](N)[C@H](O)[C@H](C)O1
3. COC1=C(Br)C[C@]2(OC=C1Br)ON=C(C(=O)NCCCOc1c(Br)cc(C(O)CN/C=C3/C(=O)CC(Cl)C3=O)cc1Br)[C@@H]2O (mixture of isomers) [19-HYDROXYPSAMMAPLYSINE X]

1. 3900
2. 1800
3. 800
